Biological target: pre-pro-insulin glargine
Measured metric: Yield

trypsin variant SEQ ID NO: 56 (protein) IVGGYTCAANSIPYQVSLNSGSHRCGGSLINSQWVVSAAHCYKSRIQVRLGEHNINVLEGNEQFINAAKIITHPNFNGNTLDNDIMLIKLSSPATLNSRVATVSLPRSCAAAGTECLISGWGNTKSSGSSYPSLLQCLKAPVLSDSSCKSSYPGQITGNMICVGFLEGGKDACQGDSGGPVVCNGQLQGIVSSGYGCAQKNKPGVYTKVCNYVNWIQQTIAAN = > 90%
trypsin variant SEQ ID NO: 89 (protein) IVGGYTCAANSIPYQVSLNSGSHRCGGSLINSQWVVSAAHCYKPRIQVRLGEHNIHVLEGNEQFINAAKIITHPNFNPNTLDNDIMLIKLSSPATLNSHVATVSLPTSCAAAGTECLISGWGNTASSGSSMPSLLQCLKAPVLSDSSCKSSYPGQITGNMICVGFLEGGKDACQGDSGGPVVCNGQLQGIVSSGYGCAQKNKPGVYTKVCNYVNWIQQTIAAN = > 90%

Let's switch to this protein now.
*Q* For the protein trypsin variant SEQ ID NO: 83 (protein) IVGGYTCAANSIPYQVSLNSGSHRCGGSLINSQWVVSAAHCYKPRIQVRLGEHNIHVLEGNEQFINAAKIITHPNFNPNTLDNDIMLIKLSSPATLNSNVATVSLPTSCAAAGTECLISGWGNTSSSGSSMPSLLQCLKAPVLSDSSCKSSYPGQITGNMICVGFLEGGKDACQGDSGGPVVCNGQLQGIVSSGYGCAQKNKPGVYTKVCNYVNWIQQTIAAN , report Yield.
*A* > 90%
